Values from patent US20150087627A1

Collected pIC50 values appear next to each entry.
target: PI3K γ (p110γ) (Homo sapiens)
Construct: purchased Upstate / Millipore Corporation
Sequence (P48736 whole entry): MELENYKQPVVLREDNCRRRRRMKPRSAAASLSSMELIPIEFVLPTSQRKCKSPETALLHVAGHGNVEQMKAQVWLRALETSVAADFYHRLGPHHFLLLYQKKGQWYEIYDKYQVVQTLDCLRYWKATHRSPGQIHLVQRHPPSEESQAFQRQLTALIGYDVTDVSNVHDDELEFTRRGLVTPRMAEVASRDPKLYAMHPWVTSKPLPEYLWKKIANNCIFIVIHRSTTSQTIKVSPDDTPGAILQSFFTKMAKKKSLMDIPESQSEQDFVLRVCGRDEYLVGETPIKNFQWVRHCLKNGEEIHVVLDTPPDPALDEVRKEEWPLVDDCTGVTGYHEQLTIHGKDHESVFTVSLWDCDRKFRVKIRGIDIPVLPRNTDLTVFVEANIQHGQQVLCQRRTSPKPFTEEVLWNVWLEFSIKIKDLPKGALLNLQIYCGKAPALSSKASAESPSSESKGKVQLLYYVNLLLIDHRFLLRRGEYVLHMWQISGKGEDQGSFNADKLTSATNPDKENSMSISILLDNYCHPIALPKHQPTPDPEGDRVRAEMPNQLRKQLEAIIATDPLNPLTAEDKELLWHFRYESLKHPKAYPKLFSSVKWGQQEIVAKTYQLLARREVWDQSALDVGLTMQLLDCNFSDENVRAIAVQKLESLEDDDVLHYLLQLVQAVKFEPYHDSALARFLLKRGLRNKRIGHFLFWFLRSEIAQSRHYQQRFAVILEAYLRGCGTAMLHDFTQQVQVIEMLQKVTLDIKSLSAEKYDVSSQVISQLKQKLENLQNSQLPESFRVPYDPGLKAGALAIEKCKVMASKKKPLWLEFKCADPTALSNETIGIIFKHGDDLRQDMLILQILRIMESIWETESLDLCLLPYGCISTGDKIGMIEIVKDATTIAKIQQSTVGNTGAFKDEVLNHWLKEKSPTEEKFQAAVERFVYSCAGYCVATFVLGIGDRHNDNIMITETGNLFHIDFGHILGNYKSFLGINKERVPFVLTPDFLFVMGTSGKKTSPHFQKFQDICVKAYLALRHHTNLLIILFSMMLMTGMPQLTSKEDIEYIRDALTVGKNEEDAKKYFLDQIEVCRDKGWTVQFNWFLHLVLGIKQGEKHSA
assay_details: PI 3-Kinase (human) HTRF assay, PI3K γ
Assay type: biochemical
assay_setup: read-out: PI3K γ IC50
pIC50: −log10 of the molar value.
observation_type: pIC50

INSERT INTO assay_data (compound, obs_value) VALUES
  ('Nc1nsc2cc(-c3ccc4ncc(C(=O)N5CCOCC5)n4c3)ccc12 [Compound 489]', '< 5.00'),
  ('CN1CCN(CCn2cnc3ccc(-c4ccc5oc(N)nc5c4)cc3c2=O)CC1 [Compound 280]', '< 5.00'),
  ('Nc1nc2cc(-c3ccc4ncc(C(=O)Nc5cccnc5)n4c3)ccc2o1 [Compound 190]', '> 7.00'),
  ('CCN(CC)CCNc1cnc2ccc(-c3ccc4oc(N)nc4c3)cc2n1 [Compound 218]', '> 5.00'),
  ('CO[C@@H]1CCN(C(=O)c2cnc3ccc(-c4ccc5oc(N)nc5c4)cn23)C1 [Compound 464]', '> 6.00'),
  ('CNS(=O)(=O)c1cncc(-c2ccc3ncc(C(=O)N4CCOCC4)n3c2)c1 [Compound 450]', '< 5.00'),
  ('COCCn1cnc2ccc(-c3ccc4oc(N)nc4c3)cc2c1=O [Compound 272]', '> 5.00'),
  ('Cc1cc2ncc(C(=O)N3CCOCC3)n2cc1-c1ccc2oc(N)nc2c1 [Compound 507]', '< 5.00'),
  ('Nc1ncc(-c2ccc3ncc(C(=O)N4CCOCC4)n3c2)cc1C(F)(F)F [Compound 410]', '< 5.00'),
  ('Nc1nc2cc(-c3ccc4ncc(C(=O)N5CCC(N6CCC(F)(F)C6)C5)n4c3)ccc2o1 (centres unmarked) [Compound 500]', '> 5.00'),
  ('Nc1nc2cc(-c3ccc4ncc(N5CC(C(=O)NC6CC6)C5)nc4c3)ccc2o1 [Compound 215]', '> 6.00'),
  ('C[C@H]1CN(C2CN(c3cnc4ccc(-c5ccc6oc(N)nc6c5)cc4n3)C2)CCN1 [Compound 350]', '< 5.00'),
  ('COC(=O)N1CCN(c2cnc3ccc(-c4ccc5oc(N)nc5c4)cc3n2)CC1 [Compound 193]', '> 7.00'),
  ('Nc1nc2cc(-c3cn4c(-c5cn[nH]c5)cnc4cn3)ccc2o1 [Compound 69]', '> 6.00'),
  ('Nc1nc2cc(-c3ccc4ncc(-c5ccncc5)nc4c3)ccc2o1 [Compound 71]', '> 7.00'),
  ('Nc1nc2cc(-c3ccc4nc(N)oc4c3)ccc2o1 [Compound 241]', '> 7.00'),
  ('Nc1nc2cc(-c3ccn4ncc(-c5ccncc5)c4n3)ccc2o1 [Compound 62]', '> 7.00');
